- test_description: solvent given as SMILES
- condition_parameters: in O
value_type: solvation free energy, 298 K (kcal/mol)
Answers are plain numbers, in kcal/mol.

See these solved cases before continuing.
molecule	solvation free energy, 298 K (kcal/mol)
Nc1ccc(S(N)(=O)=O)cc1	-14.8
Clc1ccc(-c2cc(Cl)c(Cl)c(Cl)c2)cc1Cl	-3.79
COC(C)(C)C	-2.02
CCCCCC=CC=O	-3.43
CCCCCCCCOC(=O)c1ccccc1C(=O)OCCCC	-6.83
Clc1ccc(C(c2ccccc2Cl)C(Cl)(Cl)Cl)cc1 (stereo not given)	-5.31

Could you tell me solvation free energy, 298 K for each of these molecules? They are listed below.
1. CC(C)C(=O)C(C)C
2. CCOC(=O)CC
3. Clc1ccc(-c2ccc(Cl)cc2)cc1
4. CCc1ccc(C)cc1
5. CCOc1ccc(NC(C)=O)cc1
6. Cc1cccc(C)c1
7. CC(=O)OC1(C(C)C)CC=C(C)CC1 (stereo not given)
8. O=C(O)CCCCCCCc1ccccc1

1: -2.56; 2: -2.7; 3: -2.91; 4: -0.95; 5: -10.9; 6: -0.78; 7: -3.25; 8: -8.98

Give me measured solvation free energy, 298 K, please, for this molecule: O=C(OCc1ccccc1)c1ccccc1C(=O)OCc1ccccc1
-11.3

* * *

- test_description: solvent given as SMILES
- condition_parameters: in C=CCCCCCCCCCCCCCC
# if measured solvation free energy, 298 K < -3 kcal/mol: met  # else: not met

compound	classification
CC(=O)O	not met

Below -3 kcal/mol on solvation free energy, 298 K? Entry C=CCC(C)C
met

Below -3 kcal/mol on solvation free energy, 298 K? Entry C=C(C)CCCC
met

Below -3 kcal/mol on solvation free energy, 298 K? Entry CCOC=O
not met

Below -3 kcal/mol on solvation free energy, 298 K? Entry C=CCCCC
met

* * *

Would you mind telling me the reported solvation free energy, 298 K of each entry?
- test_description: solvent given as SMILES
- condition_parameters: in CCCCCO
Put your answer as a value accompanied by its unit after it.

compound	value_type	recorded_result
C(=Cc1ccccc1)c1ccccc1	solvation free energy, 298 K	-10.1 kcal/mol
CCCC	solvation free energy, 298 K	-2.03 kcal/mol
CCC	solvation free energy, 298 K	-1.32 kcal/mol
CCOc1ccc(NC(C)=O)cc1	solvation free energy, 298 K	-13 kcal/mol
CCC(C)(C)C	solvation free energy, 298 K	-2.93 kcal/mol
O=C(O)c1ccc(O)cc1	solvation free energy, 298 K	-11.3 kcal/mol

Could you tell me solvation free energy, 298 K for each of these compounds? They are listed below.
1. Cc1ccc2cc(C)ccc2c1
2. CC(C)O
3. Cc1cccc(C(=O)O)c1

1. -8.49 kcal/mol
2. -4.99 kcal/mol
3. -9.99 kcal/mol

* * *

- test_description: solvent given as SMILES
- condition_parameters: in CCCCOCCO
value_type: solvation free energy, 298 K (kcal/mol)
Answers are plain numbers, in kcal/mol.

chem_smiles	measurement_unit	recorded_result
[HH]	kcal/mol	1.67
O	kcal/mol	-4.6
Cc1cccc(C(=O)O)c1	kcal/mol	-10

Give me measured solvation free energy, 298 K, please, for this molecule: COc1ccccc1C(=O)O
-11.4

* * *

- test_description: solvent given as SMILES
- condition_parameters: in CCC(C)=O
Would you mind telling me the reported solvation free energy, 298 K of each entry?
Answers are plain numbers, in kcal/mol.

See these solved cases before continuing.
chem_smiles	value_type	recorded_result
CCC1CCCCC1	solvation free energy, 298 K	-4.81
CC1CCCCC1	solvation free energy, 298 K	-4.12

Here is the next item to consider.
Give me measured solvation free energy, 298 K, please, for this compound: CCCCCCCCCCCCCCCCCCCCCCCCCCCC
-17.1
